System: A549/ATCC NSCLC
protocol: NCI-60 one-dose screen, 48 h (100 = growth as untreated, 0 = no growth, -100 = all killed)
run_conditions: 10 µM
This is part of a sample that, as a whole, favours compounds with a hit. Of some 83,000 tested, about 20% had one in any assay.
Range-based classes on measured growth: lower range: < 40%; middle range: ≥ 40% and < 90%; upper range: ≥ 90%

molecule	category
COc1cc2cc3c(nc2cc1OC)CCN3Cc1ccc(NC(=O)Nc2cc(C(F)(F)F)cc(C(F)(F)F)c2)cc1	middle range
CN(C)CCS(=O)(=O)CCN(C)C	upper range
O=C(NC(Cc1ccc(O)cc1)C(=O)N=Nc1c(O)[nH]c2ccccc12)c1ccccc1 (centres undefined)	upper range
O=C(Nc1cccc(-n2cc(-c3ccncc3)c(-c3cc(O)cc(Cl)c3)n2)c1)Nc1ccc(Cl)c(C(F)(F)F)c1	lower range
CC(=O)/C(=C/c1ccccc1)C(=O)CC(C)C	upper range
COc1cc(NC(=O)CSc2nc3ccccc3c(=O)n2CCc2ccccc2)cc(OC)c1OC	lower range
COc1ccc(-c2nn(-c3cccc(NC(=O)Nc4ccccc4)c3)cc2-c2ccncc2)cc1Cl	lower range
N=C(N)c1ccc(-c2ccc(-c3cccs3)s2)s1	lower range
N#Cc1ncc(-c2cc(F)c(F)c(F)c2)c(NC2CCCCCC2)n1	upper range
Cc1ccc(Nc2cc(C)nc(NCCCNc3ccnc4cc(Cl)ccc34)n2)cc1	lower range
C#Cc1ccc(-n2c(/C=C/c3ccc4ccccc4c3)nc3ncccc3c2=O)cc1	lower range
N#CC1=C(Nc2ccccc2Cl)SC(c2ccccc2O)NC1=O (centres undefined)	middle range
CC(=O)C1CCC2C3CC(F)C4=CC(=O)CCC4(C)C3C(O)CC12C (centres undefined)	middle range
CC12O[C@H](C[C@@H](OC(=O)c3ccccc3)[C@H]1O)n1c3ccccc3c3c4c(c5c6ccccc6n2c5c31)C(=O)NC4=O	middle range
Fc1ccc2nc(-c3nc(-c4ccccc4)n4ccccc34)[nH]c2c1	lower range
c1ccc(CNc2ncnc3scc(-c4cccs4)c23)nc1	middle range
Cc1nc2ccccc2c(N)c1-c1cc(C)c2c(C)nc3ccccc3c2n1	lower range
Clc1ccc(Sc2nc(NC3CC3)nc(Sc3ccc(Cl)cc3)n2)cc1	middle range
c1ccc([C@H]2CN3CCSC3=N2)cc1	upper range
COc1ccc(/C(=C2/O[C@@H]([C@H]3COC(C)(C)O3)[C@H]3OC(C)(C)O[C@@H]23)c2cc(OC)c(OC)c(OC)c2)cc1O	middle range
COc1ccc(OC)c2c1C(=O)CC2C (centres undefined)	upper range
Cc1nc2oc3ccccc3c(=O)c2cc1C(=O)NCc1ccccc1	middle range
O=S(=O)(NCCCNc1nccc(-c2c(-c3ccc(F)cc3)nc3sccn23)n1)c1ccc2ccccc2c1	lower range
CC/C(=N\N=C(/CC)c1ccc(Br)cc1)c1ccc(Br)cc1	upper range
c1ccc(CP(Cc2ccccc2)c2ccccc2)cc1	upper range
CN1CCC(CNc2cc(C3(C(=O)Nc4cc(C(=O)Nc5ccc(Cl)c(C(F)(F)F)c5)ccc4F)CC3)ncn2)CC1	lower range
Nc1ncnc2[nH]c(=O)[nH]c12	upper range
CC(C)(C)c1ccc(N2CSC(=S)N(c3ccc(C(C)(C)C)cc3)C2)cc1	lower range
COc1cc(OC)cc(-c2cncn2-c2ccc(-c3nc4cc(OC)cc(OC)c4s3)cc2)c1	middle range
O=c1[nH]c(-c2ccc(Cl)cc2)nc2sc3c(c12)CCCC3	upper range
C#Cc1ccc(-n2c(/C=C/c3ccc(Cl)c(F)c3)nc3ncccc3c2=O)cc1	lower range
Cc1ccc(-c2nc(/C=C3/C(=O)N(C)c4ccc(F)cc43)c3ccccn23)cc1	upper range
COc1cc(Cc2cc(-c3ccc(Cl)cc3)n[nH]c2=O)ccc1O	middle range
c1ccc(C(NC2CC3CCC2C3)c2ccccc2)cc1 (centres undefined)	upper range
O=C1/C(=C\c2ccc(Cl)cc2)CN(C(=S)Nc2ccccc2)C/C1=C\c1ccc(Cl)cc1	lower range
COc1ccc(/C=C2/CN(C(=O)c3ccccc3F)C/C(=C\c3ccc(OC)cc3)C2=O)cc1	middle range
